Target: T1, 4H953-bN
T1 chain: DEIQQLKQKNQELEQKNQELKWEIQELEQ
Assay: two-hybrid library CCNG1;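 note: natural log of median RNA to DNA barcode read ratio; higher means stronger binding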
Quick rule for you: interaction score under -1 gets TRUE, anything else gets FALSE.

[
  {
    "BINDER": "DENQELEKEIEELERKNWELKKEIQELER [4H1081-bH]",
    "CATEGORY": "FALSE"
  },
  {
    "BINDER": "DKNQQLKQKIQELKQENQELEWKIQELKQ [4H3926-bN]",
    "CATEGORY": "FALSE"
  },
  {
    "BINDER": "DEIQQLKQENQELEQKIQELKWKNQELEQ [4H687-bN]",
    "CATEGORY": "TRUE"
  },
  {
    "BINDER": "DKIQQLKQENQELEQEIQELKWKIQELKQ [4H2702-bN]",
    "CATEGORY": "FALSE"
  },
  {
    "BINDER": "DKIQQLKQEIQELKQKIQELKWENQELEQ [4H2667-bN]",
    "CATEGORY": "FALSE"
  },
  {
    "BINDER": "DEIQQLKQKNQELEQKNQELKWEIQELEQ [4H953-bN]",
    "CATEGORY": "TRUE"
  },
  {
    "BINDER": "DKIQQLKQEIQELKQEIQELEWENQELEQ [4H2627-bN]",
    "CATEGORY": "TRUE"
  }
]
